test: NCI Yeast Anticancer Drug Screen. Data for the cln2 rad14 strain (AID 165); details: S. cerevisiae cln2 rad14 strain, at 5.0 µM (retest, dose inferred, filed as 0.5), stronger effect = higher value
About 79,000 compounds went through this panel and 15% of them were active in at least one assay; those are over-represented in the sample as a whole.
Use fulfilled when the recorded growth inhibition is no lower than 10%; use not fulfilled when it is lower.

Observe how each entry below is paired with its result.
ClCCN(CCCl)c1ccc(CNCCCNCc2ccc(N(CCCl)CCCl)cc2)cc1	not fulfilled
CCN1/C(=C\c2ccc3cc(C)ccc3[n+]2CC)[Se]c2ccccc21	fulfilled
C[C@]12CC/C(=N\NC(=O)c3ccncc3)C[C@@H]1CC[C@@H]1[C@@H]2CC[C@]2(C)[C@@H](O)CC[C@@H]12	not fulfilled
CCCCCCNC(=O)CI	not fulfilled
CC[C@@]1(O)C(=O)OCc2c1cc1n(c2=O)Cc2cc3ccccc3nc2-1	fulfilled

Q: API: above_or_equal(metric=growth inhibition, cutoff=10%) for item `O=P(c1ccccc1)(c1ccccc1)c1ccccc1.O=P(c1ccccc1)(c1ccccc1)c1ccccc1.S=C=[N][Sn]([N]=C=S)([N]=C=S)[c]1ccccc1`
Result: not fulfilled

Q: API: above_or_equal(metric=growth inhibition, cutoff=10%) for item `c1ccc(NC2=NCCN2)nc1`
Result: fulfilled
